Here, each record is paired with measured IC50, JRFL pseudovirion entry data.
- target_or_system: HIV-1 JRFL envelope glycoprotein gp41 (N-trimer of the prehairpin intermediate) (HIV-1 strain JRFL)
- method_description: cell-based or functional assay
Bridges are numbered along the chain shown (N, C = ends). Roman numbers before positions name the chains, in order. [ ]: non-standard residue; d: D form.
# output: bare number, implied unit nM

Below, 2 binders whose answers are already recorded.
Ac-[dH][dP][dC][dD][dY][dP][dE][dW][dQ][dW][dL][dC][dK][dL]G[dK]-NH2 (disulfide 3-12 (inferred)) [PIE13]
1470
Ac-[dH][dP][dC][dD][dY][dP][dE][dW][dQ][dW][dL][dC][dE][dL]G[dK]-NH2 (disulfide 3-12 (inferred); also: dimer, C- to C-terminal link by PEG5 spacer) [C5C(PIE12)2]
14

With those in mind, consider the next binder.
input: Which measured IC50, JRFL pseudovirion entry value corresponds to C5C-PIE12-trimer (disulfide I:3-I:12, II:3-II:12 (inferred); also: trimer: C-terminal Lys linked by PEG5 spacers) peptide 1: Ac-[dH][dP][dC][dD][dY][dP][dE][dW][dQ][dW][dL][dC][dE][dL]G[dK]-NH2 peptide 2: Ac-[dH][dP][dC][dD][dY][dP][dE][dW][dQ][dW][dL][dC][dE][dL]G[dK][dK]-NH2 ?
output: 2.8
